EXPERIMENTAL_PROTOCOL: Apparent permeability in LLC-PK1 cells by LC-MS method
Format: ADME, cell-based, Sus scrofa
COND: pig
Measured Papp, listed per entry for reference.
MEASUREMENT_LABEL: Papp (×10⁻⁶ cm/s)

INSERT INTO assay_data (molecule, measurement_label, obs_value) VALUES
  ('CNC(=O)c1c(-c2ccccn2)c([C@H](C)Nc2ncnc(N)c2C#N)nc2cccc(F)c12', 'Papp', 8),
  ('C[C@H](Nc1ncnc2[nH]cnc12)c1cc2ccc(F)cc2nc1-c1ccccn1 [AMG-319]', 'Papp', 30),
  ('CNC(=O)c1c(-c2ccccn2)c([C@H](C)Nc2ncnc(N)c2C#N)nc2ccc(F)cc12', 'Papp', 14.6);
